# Measured target: Proto-oncogene tyrosine-protein kinase receptor Ret (Homo sapiens)
# Sequence (P07949 whole entry): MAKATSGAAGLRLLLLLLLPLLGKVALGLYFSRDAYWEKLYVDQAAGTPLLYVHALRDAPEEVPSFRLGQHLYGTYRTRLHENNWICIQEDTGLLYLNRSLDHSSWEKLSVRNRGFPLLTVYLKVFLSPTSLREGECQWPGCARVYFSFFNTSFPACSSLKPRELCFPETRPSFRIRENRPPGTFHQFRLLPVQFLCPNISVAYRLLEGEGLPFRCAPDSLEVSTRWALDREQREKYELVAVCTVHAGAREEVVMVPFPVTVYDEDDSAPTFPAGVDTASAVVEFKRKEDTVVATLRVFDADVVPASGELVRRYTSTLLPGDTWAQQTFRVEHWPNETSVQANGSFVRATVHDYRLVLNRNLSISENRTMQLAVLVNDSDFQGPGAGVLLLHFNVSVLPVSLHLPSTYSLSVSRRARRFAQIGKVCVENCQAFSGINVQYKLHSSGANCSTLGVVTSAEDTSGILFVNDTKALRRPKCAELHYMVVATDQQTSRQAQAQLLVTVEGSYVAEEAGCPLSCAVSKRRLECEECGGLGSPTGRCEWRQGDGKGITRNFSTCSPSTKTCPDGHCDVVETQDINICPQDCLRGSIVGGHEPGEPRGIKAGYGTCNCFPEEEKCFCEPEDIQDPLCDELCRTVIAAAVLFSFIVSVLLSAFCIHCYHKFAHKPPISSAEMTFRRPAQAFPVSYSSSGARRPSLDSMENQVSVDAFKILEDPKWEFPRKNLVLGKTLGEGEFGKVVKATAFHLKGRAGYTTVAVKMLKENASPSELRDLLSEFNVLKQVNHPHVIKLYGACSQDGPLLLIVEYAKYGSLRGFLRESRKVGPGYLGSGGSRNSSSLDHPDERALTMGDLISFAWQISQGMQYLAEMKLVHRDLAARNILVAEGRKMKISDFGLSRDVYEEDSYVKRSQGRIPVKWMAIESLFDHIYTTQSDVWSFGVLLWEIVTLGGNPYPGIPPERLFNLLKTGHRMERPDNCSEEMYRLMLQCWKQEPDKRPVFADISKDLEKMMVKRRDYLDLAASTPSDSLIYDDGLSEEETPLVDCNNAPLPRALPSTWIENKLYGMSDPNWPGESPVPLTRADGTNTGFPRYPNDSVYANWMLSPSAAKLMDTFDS
# Assay summary: Inhibition of RET kinase in Sf9 cells
# Type: cell-based
Reported pIC50 by item:
# pIC50 = -log10(concentration in molar units)

See these solved cases before continuing.
INSERT INTO assay_data (test_smiles, measured_attribute, observed) VALUES
  ('Oc1cccc(Nc2ccnc3cc(-c4ccccn4)ccc23)c1', 'pIC50', 8.22),
  ('Oc1cc(Nc2ccnc3cc(-c4cc5ccccc5o4)ccc23)ccc1Br', 'pIC50', 7.07),
  ('Cc1ccc(O)cc1Nc1ccnc2ccc(C(=O)NC(C)C)cc12', 'pIC50', 7.02);

Here is the next item to consider.
Short answer for Oc1cccc(Nc2c(Cl)cnc3cc(-c4cncs4)ccc23)c1 : pIC50 was 7.00

###

Reported Activity by item:
# Measured target: Proto-oncogene tyrosine-protein kinase receptor Ret (Homo sapiens)
# Assay summary: Inhibition of RET kinase expressed in Sf9 cells at 5000 nm
Write the answer as a number in cpm, unit excluded.

INSERT INTO measurements (test_smiles, observed) VALUES
  ('CN(C)S(=O)(=O)c1ccc(N/C=C2\C(=O)Nc3ccc4ncccc4c32)cc1', 1210);

Short answer for COc1cc2ncnc(Nc3ccc(Cl)c(O)c3)c2cc1OC : Activity was 298

Short answer for O=C1Nc2ccc3ncsc3c2/C1=C/c1c[nH]cn1 : Activity was 950

###

# Measured target: Proto-oncogene tyrosine-protein kinase receptor Ret (Homo sapiens)
# Assay summary: Inhibition of RET kinase expressed in Sf9 cells at 5000 nm
Reported Activity by item:
Write the answer as a number in cpm, unit excluded.

See these solved cases before continuing.
INSERT INTO assay_data (test_smiles, observed) VALUES
  ('O=C1Nc2ccc3ncsc3c2/C1=C/Nc1ccc2c(c1)CS(=O)(=O)C2', 428),
  ('NS(=O)(=O)c1ccc(-c2cnc3c(c2)/C(=C/c2cc(Br)c(O)c(Br)c2)C(=O)N3)cc1', 355),
  ('CS(=O)(=O)Cc1ccc(N/C=C2\C(=O)Nc3ccc4ncsc4c32)cc1', 1310);

Short answer for CS(=O)(=O)c1ccc2nccc(Nc3cc(O)c(F)cc3Cl)c2c1 : Activity was 460
